Entries and their measured IC50 follow.
- SYSTEM NAME: UniProt:P24666
- Sequence (P24666 whole entry): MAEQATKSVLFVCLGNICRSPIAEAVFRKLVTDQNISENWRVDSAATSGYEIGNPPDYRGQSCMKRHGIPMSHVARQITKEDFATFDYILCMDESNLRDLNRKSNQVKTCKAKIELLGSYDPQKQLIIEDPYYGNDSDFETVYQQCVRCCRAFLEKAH
- EXPERIMENT DESCRIPTION: LMPTP primary screening / LMPTP (OMFP) enzyme inhibition assay, fluorescence intensity
- Format: biochemical
- PROTOCOL CONDITIONS: LMPTP-A, OMFP substrate, method of Example 2; read-out: IC50
- Experimental: This assay attempts to identify inhibitors of the LMPTP-A (Low Molecular Weight Protein Tyrosine Phosphatase-A) enzyme. It is run in 1536-well format and is measured via fluorescence intensity. […] Assay Procedure • 1. […] Read plates on PerkinElmer Viewlux using a FI protocol.

# annotated cases, reported IC50 shown
>>> result("FC(F)(F)c1cc(-c2cc(Nc3ccc(CN4CCCCC4)cc3)c3ccccc3n2)cc(C(F)(F)F)c1 [Compound I43]")
"> 5000 nM"
>>> result("COc1ccc(-c2cc(NCCc3ccc(F)cc3)c3ccccc3n2)cc1 [Compound G87]")
"801 to 5000 nM"
>>> result("COc1ccc(-c2cc(NCc3ccccc3OC)c3ccccc3n2)cc1 [Compound G77]")
"801 to 5000 nM"
>>> result("O=C(NCC1CCNCC1)c1ccc(-c2cc(NCCCN3CCCCC3)c3ccccc3n2)cc1 [Compound I197]")
"200 to 800 nM"
>>> result("COc1ccc(-c2cc(NCCCN3CCCCC3)c3c(n2)CCCC3)cc1 [Compound I208]")
"801 to 5000 nM"

Recorded IC50 for COc1ccc(-c2cc(NCc3ccc(CN4CCOCC4)cc3)c3ccccc3n2)cc1 [Compound I211] , please?
801 to 5000 nM

Subsequent entry: NC(=O)c1ccc(-c2cc(NCCCN3CCCCC3)c3ccccc3n2)cc1F [Compound I81]
200 to 800 nM
